FYI, the data here is from the supplement of paper PMC10567573.

B1: CCND1 (parent)
chain: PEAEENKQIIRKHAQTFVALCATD

# Variants of: B1
# ASSAY_COMMENT: protein stability index of a GFP-peptide fusion (GPS, HEK-293T) (PSI 1-6); higher = more stable;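 also: lentivirally expressed fusions sorted by FACS into six bins by GFP to DsRed ratio, PSI derived from sequencing read proportions per bin multiplied by bin number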
# CONDITION_SUMMARY: c terminus: a fixed tail appended
Returns 1.0 if the recorded protein stability index is greater than or equal to 3, and 0.0 otherwise.

// below: answered variants
>  <VAR>
H13A

>  <CATEGORY>
1.0

$$$$
>  <VAR>
A19V

>  <CATEGORY>
1.0

$$$$
>  <VAR>
K12V

>  <CATEGORY>
1.0

$$$$

Turning now to a further record.
Enquiry: I'd appreciate it if you could say whether "C21N" has protein stability index at least equal to 3.
Return: 1.0
